These data points were gathered from paper PMC9672091.

Biological target: UniProt:O42275
Sequence (O42275 24-633): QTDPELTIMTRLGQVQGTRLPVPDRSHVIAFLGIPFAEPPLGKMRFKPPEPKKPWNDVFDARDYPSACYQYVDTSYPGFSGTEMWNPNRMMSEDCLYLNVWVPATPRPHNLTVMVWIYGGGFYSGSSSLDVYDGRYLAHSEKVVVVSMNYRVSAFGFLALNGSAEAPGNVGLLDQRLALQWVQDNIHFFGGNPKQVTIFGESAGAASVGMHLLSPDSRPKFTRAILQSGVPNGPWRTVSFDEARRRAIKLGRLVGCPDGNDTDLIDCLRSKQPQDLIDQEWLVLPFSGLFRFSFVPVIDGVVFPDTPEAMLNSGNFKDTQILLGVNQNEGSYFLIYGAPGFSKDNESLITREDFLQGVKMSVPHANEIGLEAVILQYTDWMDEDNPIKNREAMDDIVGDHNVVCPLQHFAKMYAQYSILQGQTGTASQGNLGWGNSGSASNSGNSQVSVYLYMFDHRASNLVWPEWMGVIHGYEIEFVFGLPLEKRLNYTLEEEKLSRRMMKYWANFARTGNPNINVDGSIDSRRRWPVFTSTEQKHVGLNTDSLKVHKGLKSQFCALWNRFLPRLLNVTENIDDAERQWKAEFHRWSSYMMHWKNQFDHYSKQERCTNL
pIC50: −log10 of the molar value.
Readout: pIC50

smiles_input=COc1cc(C=O)ccc1O readout=pIC50 value_reported=4.48
